Provenance of the data: the supplement of paper PMC12042874

Assay: amyloid nucleation score (Sup35N fusion, yeast selection) (log enrichment); library NNK1; higher = more nucleation; inactive = no reads after selection;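 further: zero at mode of non-aggregating sequences after 7 days selection at 30°C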
Give t when the value for amyloid nucleation score is at least 0.05. Give f when it is less.

QUERY: Form field: amyloid nucleation score at least 0.05? Entry: `KAMCYKMSFCNYDSRVYTED`
RESULT: t

QUERY: Reported amyloid nucleation score at or above 0.05? `VLIMYYGCLDDFLLRDYSLL`
RESULT: t

QUERY: Is the recorded value of amyloid nucleation score equal to or greater than 0.05 for this substance? `QIKVTGRRSSDEGSQGGWLL`
RESULT: t

QUERY: # check: amyloid nucleation score of `SCTYSIFCDNISRTLGH` is greater than or equal to 0.05
RESULT: f

QUERY: I'd appreciate it if you could say whether `MNSVGAGWFGLRCNYRAHEA` has amyloid nucleation score at least equal to 0.05.
RESULT: t

###

Experiment: amyloid nucleation score (Sup35N fusion, yeast selection) (log enrichment); library NNK2; higher = more nucleation; inactive = no reads after selection
Please note: 1 (yes) applies when amyloid nucleation score is 0.1 or greater, and 0 (no) applies otherwise.

{"substance": "FRMWGLC", "answer.label": "1 (yes)"}
{"substance": "MAGWLLNINLLMPIVGDVLQ", "answer.label": "1 (yes)"}
{"substance": "GQWGETY", "answer.label": "1 (yes)"}
{"substance": "YMYGVNNASSF", "answer.label": "1 (yes)"}
{"substance": "FRCLTSSANISISTVWYVGH", "answer.label": "1 (yes)"}
{"substance": "VNVIFHEYNVDAG", "answer.label": "1 (yes)"}
{"substance": "TLCMSRGNSYCCMQSFSEKD", "answer.label": "1 (yes)"}
{"substance": "SCAGSWNNKGGSKLQWDFLV", "answer.label": "0 (no)"}

QUERY: Is amyloid nucleation score at least 0.1? Consider `LDYLDSVSINGIVQFKQMVW`
RESULT: 0 (no)

QUERY: Decide: amyloid nucleation score of `CYRNNWTMWVVSQRYHRNGK` >= 0.1?
RESULT: 0 (no)

###

Assay: amyloid nucleation score (Sup35N fusion, yeast selection) (log enrichment); library NNK3; higher = more nucleation; inactive = no reads after selection
measured.parameter: amyloid nucleation score

Examples from the recorded data:
{"substance": "HKFFAYDGGDRKRGIFGGWL", "amyloid nucleation score": 1.25}
{"substance": "NCGSYSKSDN", "amyloid nucleation score": "inactive"}
{"substance": "SLFYHTGRS", "amyloid nucleation score": 0.459}
{"substance": "DGRRSMATCWIHSNCPWRAS", "amyloid nucleation score": "inactive"}
{"substance": "ADKIRIRFY", "amyloid nucleation score": "inactive"}

Memo: `ACSDFSE` , reported amyloid nucleation score: inactive

Lab note: measured amyloid nucleation score of `LRCKKRLVRFLHVHEFAVEY` was -0.211

Looking up `NLWLKSFWSLRLFLRDL` , I see its amyloid nucleation score listed as 0.68

amyloid nucleation score reported for this substance `HNNYHYIVRSFVGI` : 1.01

substance `ILVLRHA` , amyloid nucleation score observed: inactive

Query `VSWYCCTFAAFILWNSSWCI` yields amyloid nucleation score of inactive

###

Assay: amyloid nucleation score (Sup35N fusion, yeast selection) (log enrichment); library NNK3; higher = more nucleation; inactive = no reads after selection
measured.parameter: amyloid nucleation score

Some substances with known amyloid nucleation score results, for comparison:
{"substance": "QRNNFLLTMVTCFDLKL", "recorded.value": "inactive"}
{"substance": "GYSKNI", "recorded.value": "inactive"}
{"substance": "IAKLVKFEEFRMQDCYIDWL", "recorded.value": "inactive"}
{"substance": "ENALRLRQVGQILGLNCRIV", "recorded.value": "inactive"}
{"substance": "YVFVRS", "recorded.value": "inactive"}

The substance identified as `VQVIRFFWIMGLTGWTRELP` registered its amyloid nucleation score at inactive

# amyloid nucleation score (substance: `KIMFLMGSASMDSTGTC` ) is 0.863

The reported amyloid nucleation score of the substance `VDLAIMLVDLLGHSKMYQTG` was inactive

Consider `NFGTWDQSVLSLRMKLTCVP` . Its measured amyloid nucleation score is inactive

Entry under test: `SRNSSIMCFL` . Its amyloid nucleation score was inactive

`RFIVCCKTGCVY` yielded amyloid nucleation score of inactive

amyloid nucleation score in this record for `QYVCVRS` : inactive

Kindly note the recorded amyloid nucleation score for `CMLSDVIFYIVDDIRMFVGV` , which is inactive

Entry under test: `FSTQRLNG` . Its amyloid nucleation score was inactive

amyloid nucleation score recorded for this substance, `RRPLVWKFFQNLGTMN` , is inactive

Data point: `GDLGDVPGRWDWNKSWFVNY` ; amyloid nucleation score = inactive

What the record says about `CLTLYRHQ` : amyloid nucleation score is 0.313

Record `IFFQCNVAMQKDSDAKGTYV` . Reported amyloid nucleation score: 1.84
